Target: Matrix metalloproteinase-9 (Homo sapiens, UniProt P14780)
Sequence (P14780 whole entry): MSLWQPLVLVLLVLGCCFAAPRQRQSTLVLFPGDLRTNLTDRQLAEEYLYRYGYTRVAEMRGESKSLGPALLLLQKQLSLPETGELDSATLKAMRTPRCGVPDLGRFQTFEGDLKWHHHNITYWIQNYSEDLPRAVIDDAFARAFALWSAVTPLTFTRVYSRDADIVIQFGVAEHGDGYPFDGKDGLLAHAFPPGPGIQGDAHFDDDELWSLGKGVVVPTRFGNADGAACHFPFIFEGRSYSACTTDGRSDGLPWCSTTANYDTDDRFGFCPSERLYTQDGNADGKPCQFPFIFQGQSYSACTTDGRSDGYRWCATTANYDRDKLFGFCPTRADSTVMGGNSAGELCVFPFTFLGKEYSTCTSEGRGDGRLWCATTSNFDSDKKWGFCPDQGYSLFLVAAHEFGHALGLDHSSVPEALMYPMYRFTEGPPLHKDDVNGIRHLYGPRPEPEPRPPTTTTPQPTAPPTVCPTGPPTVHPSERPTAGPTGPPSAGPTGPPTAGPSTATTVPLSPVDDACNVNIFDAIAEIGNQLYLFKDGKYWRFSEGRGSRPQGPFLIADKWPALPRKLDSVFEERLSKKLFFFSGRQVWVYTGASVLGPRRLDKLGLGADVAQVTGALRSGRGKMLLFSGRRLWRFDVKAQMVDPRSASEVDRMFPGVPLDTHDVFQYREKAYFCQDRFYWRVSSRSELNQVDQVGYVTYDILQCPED
Assay: Inhibition of gelatinase-B (Matrix metalloprotease-9)
Parameters: species or system Komagataella pastoris
pIC50: −log10 of the molar value.
MEASUREMENT_NAME: pIC50

[[record]]
line_notation = "O=C1N[C@H](CS)C(=O)N(CC2CCCCC2)[C@H]1CC1CCCCC1"
measurement_name = "pIC50"
quantitative_readout = 5.15


A: O=C1N[C@@H](CS)C(=O)N(CC2CCCCC2)[C@@H]1CC1CCCCC1
B: O=C1N[C@@H](CS)C(=O)N(CC2CCCCC2)[C@H]1CC1CCCCC1
Inquiry: Which item exceeds the other in pIC50, A or B ? Give the chosen item's label as your response.
Reply text: B
